Data provenance: PubChem BioAssay AID624040

Reported inhibition values for the following molecules.
biological target: Muscarinic acetylcholine receptor M5 (Homo sapiens); experiment: human M5 muscarinic receptor antagonists, primary screen, CHO cells, Fluo-8 calcium fluorescence (AID 624040); conditions: CHO-hM5 cells, ACh EC80, at 3 µM, stronger effect = higher value;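 also: 0% = acetylcholine EC80 with DMSO and 100% = DMSO without agonist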
The whole screen tested about 360,000 compounds, of which about 2,100 (0.58%) were called active. This is one part of a sample in which actives are shown more often than they occur.
Readout Kind: inhibition (%)

OC[C@@H]1CN(Cc2ccc3c(c2)OCO3)C[C@H](n2cnc3c(NCc4ccco4)ncnc32)O1	-1.64
CCCNC(=O)N1CCN(C(=O)NCCC)CC1	8.13
O=C(COc1ccccc1)Nc1cc2c3c(c1)CC(=O)N3CCC2	-0.99
COCCn1c(SCC(=O)Nc2ccc(F)cc2F)nc2c(c1=O)SCC2	-2.37
COC(=O)c1ccccc1NC(=O)CN(Cc1ccc(Cl)cc1)S(C)(=O)=O	5.2
CC(C)(C)c1cc2cccnc2n1Cc1cccc(F)c1	-7.37
